# Test system: MCF7 breast
# EXPERIMENT DESCRIPTION: NCI tumour cell line growth inhibition, 48 h; in the data active means GI50 below about 0.43 µM; inactive means the rest
Classes used: true (1) = active, false (0) = inactive

>>> classification("Clc1ccc(-c2cn3ccnc3c(-c3ccc(Cl)cc3)n2)cc1")
"false (0)"
>>> classification("O=C(Nc1cccc(Cl)c1)Nn1cnnc1")
"false (0)"
>>> classification("Nc1ncn([C@@H]2S[C@H](CO)[C@@H](O)[C@@H]2F)c(=O)n1")
"true (1)"
>>> classification("CO/N=C(\\COc1ccc2c(c1)[nH]c1ccccc12)c1ccc(OC)cc1")
"false (0)"

* * *

# System: HCT-15 colon
# EXPERIMENT DESCRIPTION: NCI tumour cell line growth inhibition, 48 h; in the data active = GI50 below about 0.43 µM; inactive = the rest
Classes used: active, inactive

>>> classification("Nc1nc2ccc(-c3nc4ccc5[nH]ncc5c4c4c3CCC4)cc2s1")
"active"
>>> classification("Cc1cc([NH-])c([NH-])cc1C.[Cl][Pt+2][Cl]")
"inactive"
>>> classification("CC[O-].CC[O-].O=C([CH-]C(=O)c1ccccc1)CCCCCCCCC(=O)[CH-]C(=O)c1ccccc1.[Ti+4]")
"inactive"
>>> classification("CO/N=C(\\COc1ccc2c(c1)[nH]c1ccccc12)c1ccc(OC)cc1")
"inactive"
>>> classification("Cc1ccc2cnc(N)c(C#Cc3cc(C(=O)Nc4ccc(CN5CCN(C)CC5)c(C(F)(F)F)c4)cnc3C)c2c1")
"active"
